System: SF-539
assay.protocol: NCI tumour cell line growth inhibition, 48 h
Active and inactive are the calls of the source. No stated cut-off is given here; in the data, active = GI50 up to about 1.1 µM and inactive = higher.
Measured GI50 by item

Before answering, review these 3 worked examples.
compound | result
COC(=N)c1csc(C2OC(CO)C(O)C2O)n1 (stereo not given) | > 100 µM (inactive)
Cn1cc2c(n1)c(N/N=C/c1ccccc1)nn1nnnc21 | > 100 µM (inactive)
COC1=CC2(C=CC1=O)c1cc(OC)c(OC)cc1CCN2C(=O)c1ccccc1 (stereo not given) | > 100 µM (inactive)

In: Give recorded GI50. CC(C)[Si](Oc1ccc(CC2N(C(=O)c3ccc([N+](=O)[O-])cc3)C(CCc3ccccc3)CC2(C)C=O)cc1)(C(C)C)C(C)C (stereo not given)
Out: 6.22 µM (inactive)

In: Give recorded GI50. CC1OC(=O)c2ccccc2NC1=O (stereo not given)
Out: > 100 µM (inactive)

----------
Test system: RXF 393
assay.protocol: NCI tumour cell line growth inhibition, 48 h
Activity calls are given as the source filed them. Cut-off read from the data, not from the text of the source: active = GI50 up to about 1.1 µM and inactive = higher. Where a SMILES comes first, the peptide text is derived from it. [ ]: non-standard residue; d: D form. Phe(4-Cl) = N[CH](Cc1ccc(Cl)cc1)C(=O)O
measurement.kind: GI50

Before answering, review these 2 worked examples.
molecule | result
COc1cc2cc(C(=O)N3CC(COS(C)(=O)=O)c4ccc(NC(=O)OCc5ccccc5)cc43)[nH]c2c(OC)c1OC (stereo not drawn) | 25.2 µM (inactive)
CSc1nc2c(c(=O)n1C)N=C(c1ccccc1)[C@H](C(CC(=O)c1ccccc1)c1ccccc1)C(c1ccccc1)N2 (stereo partly drawn) | 65.6 µM (inactive)

In: Report GI50 under test system RXF 393 for Nc1ccc(S(=O)(=O)C23CC4CC(CC(C4)C2)C3)cc1 .
Out: 30.1 µM (inactive)

In: Report GI50 under test system RXF 393 for FC(F)(F)c1nc(-c2ccccc2)oc1Sc1oc(-c2ccccc2)nc1C(F)(F)F .
Out: 24.7 µM (inactive)

In: Report GI50 under test system RXF 393 for O=C1c2ccc(O)cc2OC(c2cc(O)c(O)c(O)c2)C1O (stereo not drawn) [DIHYDROBINETIN] .
Out: > 100 µM (inactive)

In: Report GI50 under test system RXF 393 for COC(=O)C1=C(OC(=O)/C(=C/c2ccccc2)c2ccc(Cl)cc2Cl)C(C(=O)OC)[C@@]2(O)[C@@H](C(=O)OC)[C@H](C)C[C@@H]1[C@@H]2C(=O)OC (stereo partly drawn) .
Out: > 100 µM (inactive)

In: Report GI50 under test system RXF 393 for COC(=O)C1=C(c2ccc(Cl)cc2)C(O)NC(NN)=N1 (stereo not drawn) .
Out: > 100 µM (inactive)

In: Report GI50 under test system RXF 393 for C=C1C(=O)O[C@H]2C[C@@]3(COC(C)=O)C=COC=C(COC(=O)C(C)C)C3CC12 (stereo partly drawn) .
Out: 67.6 µM (inactive)

In: Report GI50 under test system RXF 393 for CC(O)C(NC(=O)C(Cc1ccccc1)NC(=O)C(NC(=O)C(CCCCN)NC(=O)C(Cc1c[nH]c2ccccc12)NC(=O)C(Cc1ccc(O)cc1)NC(=O)C(Cc1ccc(Cl)cc1)NC(=O)C(N)Cc1ccccc1)C(C)O)C(N)=O (stereo not drawn) (H-F[Phe(4-Cl)]YWKTFT-NH2; configuration not given here) .
Out: 16 µM (inactive)

In: Report GI50 under test system RXF 393 for COC12C=CC(CC1)C(C)(C)C2=O (stereo not drawn) .
Out: > 100 µM (inactive)

In: Report GI50 under test system RXF 393 for CN1C/C(=C\c2ccc(C(=O)O)cc2)C(=O)/C(=C/c2ccc(C(=O)O)cc2)C1 .
Out: > 100 µM (inactive)

In: Report GI50 under test system RXF 393 for CC#N.O[C@@H]1CCCC[C@@H]1O.O[C@@H]1CCCC[C@@H]1O.[TeH2] .
Out: 72.3 µM (inactive)

In: Report GI50 under test system RXF 393 for COC(=O)NN=C1C(C)(C)C(=O)C1(C)C .
Out: > 100 µM (inactive)
